Can you tell me pKd for the items I'm about to list?
target: T1, canine NGF tagged at the C-terminus with the Flag tag (canine, UniProt A0A8I3PYI3 122-241); assay: SPR off-rate screen, Fab-SASA on BSA chip
T1 construct: mature; Expressed with baculovirus technology; also called feline NGF (processed form identical)
T1 sequence (A0A8I3PYI3 entry or part of it): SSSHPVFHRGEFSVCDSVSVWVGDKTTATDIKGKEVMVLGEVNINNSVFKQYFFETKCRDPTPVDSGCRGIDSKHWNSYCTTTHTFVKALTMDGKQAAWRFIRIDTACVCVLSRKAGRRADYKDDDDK
# pKd: negative log10 of molar concentration; output just the value

What value of pKd has been recorded for this entry: felinized clone 101 Fab-SASA variant D104K (VH) (Fab, V domains shown, not shown: small tags and cut ends) VH: DVQLVESGGDLVKPGGSLRLTCVASGLSLTSSSMSWVRQAPGKGLQWVSTIYSNGGTYYTDSVKGRFTISKDNAENTLYLQMNNLKTEDTATYYCASIYYYDAKYLHWYFDFWGQGALVTVSS VL: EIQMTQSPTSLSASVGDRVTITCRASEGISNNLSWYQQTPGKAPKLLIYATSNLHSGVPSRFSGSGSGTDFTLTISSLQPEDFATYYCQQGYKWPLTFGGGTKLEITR
8.26

What value of pKd has been recorded for this entry: felinized clone 101 Fab-SASA variant D104Q (VH) (Fab, V domains shown, not shown: small tags and cut ends) VH: DVQLVESGGDLVKPGGSLRLTCVASGLSLTSSSMSWVRQAPGKGLQWVSTIYSNGGTYYTDSVKGRFTISKDNAENTLYLQMNNLKTEDTATYYCASIYYYDAQYLHWYFDFWGQGALVTVSS VL: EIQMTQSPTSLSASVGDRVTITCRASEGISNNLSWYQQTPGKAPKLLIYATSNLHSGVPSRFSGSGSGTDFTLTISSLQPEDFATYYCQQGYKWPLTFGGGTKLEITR
8.66

What value of pKd has been recorded for this entry: felinized clone 101 Fab-SASA variant S97T (VH) (Fab, V domains shown, not shown: small tags and cut ends, Fab-SASA in conditioned medium) VH: DVQLVESGGDLVKPGGSLRLTCVASGLSLTSSSMSWVRQAPGKGLQWVSTIYSNGGTYYTDSVKGRFTISKDNAENTLYLQMNNLKTEDTATYYCATIYYYDADYLHWYFDFWGQGALVTVSS VL: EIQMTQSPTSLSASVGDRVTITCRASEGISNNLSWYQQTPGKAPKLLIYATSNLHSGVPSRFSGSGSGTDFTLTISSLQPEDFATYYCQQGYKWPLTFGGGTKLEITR
8.73

What value of pKd has been recorded for this entry: felinized clone 101 Fab-SASA variant N53M (VL) (Fab, V domains shown, not shown: small tags and cut ends) VH: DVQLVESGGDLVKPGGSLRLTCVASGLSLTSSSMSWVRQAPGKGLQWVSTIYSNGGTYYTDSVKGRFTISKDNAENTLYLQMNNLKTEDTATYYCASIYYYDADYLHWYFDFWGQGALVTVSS VL: EIQMTQSPTSLSASVGDRVTITCRASEGISNNLSWYQQTPGKAPKLLIYATSMLHSGVPSRFSGSGSGTDFTLTISSLQPEDFATYYCQQGYKWPLTFGGGTKLEITR
8.73

What value of pKd has been recorded for this entry: felinized clone 101 Fab-SASA variant S53P (VH) (Fab, V domains shown, not shown: small tags and cut ends) VH: DVQLVESGGDLVKPGGSLRLTCVASGLSLTSSSMSWVRQAPGKGLQWVSTIYPNGGTYYTDSVKGRFTISKDNAENTLYLQMNNLKTEDTATYYCASIYYYDADYLHWYFDFWGQGALVTVSS VL: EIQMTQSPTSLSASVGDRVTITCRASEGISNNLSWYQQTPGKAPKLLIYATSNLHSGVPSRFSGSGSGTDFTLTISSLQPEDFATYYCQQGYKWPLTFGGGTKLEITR
8.67
